Data provenance is patent US20240117038A1.

SYSTEM_UNDER_TEST: T1, cynomolgus CX3CR1 (cynomolgus monkey (Macaca fascicularis), UniProt P49238 1-355 (human entry))
T1 construct: Overexpressed on CHO K1 cells; also called cyno CX3CR1; cyCX3CR1
T1 chain: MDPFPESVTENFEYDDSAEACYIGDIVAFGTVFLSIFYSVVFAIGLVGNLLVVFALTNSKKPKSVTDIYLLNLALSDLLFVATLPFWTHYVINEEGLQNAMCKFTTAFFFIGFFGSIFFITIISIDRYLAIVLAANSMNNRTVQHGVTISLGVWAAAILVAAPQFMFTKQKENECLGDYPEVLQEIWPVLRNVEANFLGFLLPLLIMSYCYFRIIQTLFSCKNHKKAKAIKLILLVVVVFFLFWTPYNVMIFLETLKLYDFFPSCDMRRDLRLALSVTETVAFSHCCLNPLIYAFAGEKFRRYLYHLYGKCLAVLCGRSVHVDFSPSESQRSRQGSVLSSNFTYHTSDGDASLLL
PROTOCOL_DETAILS: competition flow cytometry vs soluble huCX3CL1-AF647 on CHO K1 cyCX3CR1 cells, 30 uM HSA
Reported IC50 values for a set of binders
Please reply with the bare figure in nM and do not write the unit itself.

BINDER | IC50, nM
A041600034 (VHH, Trivalent ISVD construct; also called 54A12_SO (E1D)-9GS-ALB23002-9GS-66B02_SO-A) DVQLVESGGGSVQPGGSLRLSCAASGSIFSSTAMAWYRQAPGKQRDLVAVISTVGITKYADSVKGRFTISRDNAKNTVYLQMNSLRPEDTALYYCTSDARRGWDTRYWGQGTLVTVSSGGGGSGGGSEVQLVESGGGVVQPGGSLRLSCAASGFTFRSFGMSWVRQAPGKGPEWVSSISGSGSDTLYADSVKGRFTISRDNSKNTLYLQMNSLRPEDTALYYCTIGGSLSRSSQGTLVTVSSGGGGSGGGSEVQLVESGGGSVQPGGSLRLSCAASGSIFSSTAMAWYRQAPGKRRDLVAAINTVGVTKYADSVKGRFTISRDNAKNTVYLQMNSLRPEDTALYYCTSDPRRGWDTRYWGQGTLVTVSSA | 1.8
A041600010 (VHH, Trivalent ISVD construct (two anti-CX3CR1 ISVDs, one anti-albumin ISVD); also called 66B02_SO (E1D)-9GS-ALB23002-9GS-66B02_SO-A) DVQLVESGGGSVQPGGSLRLSCAASGSIFSSTAMAWYRQAPGKRRDLVAAINTVGVTKYADSVKGRFTISRDNAKNTVYLQMNSLRPEDTALYYCTSDPRRGWDTRYWGQGTLVTVSSGGGGSGGGSEVQLVESGGGVVQPGGSLRLSCAASGFTFRSFGMSWVRQAPGKGPEWVSSISGSGSDTLYADSVKGRFTISRDNSKNTLYLQMNSLRPEDTALYYCTIGGSLSRSSQGTLVTVSSGGGGSGGGSEVQLVESGGGSVQPGGSLRLSCAASGSIFSSTAMAWYRQAPGKRRDLVAAINTVGVTKYADSVKGRFTISRDNAKNTVYLQMNSLRPEDTALYYCTSDPRRGWDTRYWGQGTLVTVSSA | 2.4
A041600025 (VHH, Trivalent ISVD construct (two anti-CX3CR1 ISVDs, one anti-albumin ISVD), C-terminal alanine included in the entry; also called 54A12_SO (E1D)-9GS-ALB23002-9GS-54A12_SO-A) DVQLVESGGGSVQPGGSLRLSCAASGSIFSSTAMAWYRQAPGKQRDLVAVISTVGITKYADSVKGRFTISRDNAKNTVYLQMNSLRPEDTALYYCTSDARRGWDTRYWGQGTLVTVSSGGGGSGGGSEVQLVESGGGVVQPGGSLRLSCAASGFTFRSFGMSWVRQAPGKGPEWVSSISGSGSDTLYADSVKGRFTISRDNSKNTLYLQMNSLRPEDTALYYCTIGGSLSRSSQGTLVTVSSGGGGSGGGSEVQLVESGGGSVQPGGSLRLSCAASGSIFSSTAMAWYRQAPGKQRDLVAVISTVGITKYADSVKGRFTISRDNAKNTVYLQMNSLRPEDTALYYCTSDARRGWDTRYWGQGTLVTVSSA | 1.7

Alright, here's another binder for you.
Asked: Record request: IC50 value, item A041600085 (VHH, also called 307-9GS-ALB23002-9GS-307 (D1E)-A) DVQLVESGGGLVQPGGSLRLSCAASGSIFSSTAMAWYRQAPGKRRDLVAAISTVGVTKYADSVKGRFTISRDNSKNTVYLQMNSLRPEDTAVYYCTSDPRRGWDTRYWGQGTLVTVSSGGGGSGGGSEVQLVESGGGVVQPGGSLRLSCAASGFTFRSFGMSWVRQAPGKGPEWVSSISGSGSDTLYADSVKGRFTISRDNSKNTLYLQMNSLRPEDTALYYCTIGGSLSRSSQGTLVTVSSGGGGSGGGSEVQLVESGGGLVQPGGSLRLSCAASGSIFSSTAMAWYRQAPGKRRDLVAAISTVGVTKYADSVKGRFTISRDNSKNTVYLQMNSLRPEDTAVYYCTSDPRRGWDTRYWGQGTLVTVSSA
Given back: 1.1
